Target: human FFAR1 (GPR40) (Homo sapiens)
Construct: Flag; expressed in transfected cells; host or cells: HEK293T
Assay: NFAT-RE-based reporter gene activity assay (Dual-Glo luciferase) for GPR40 agonistic activity in co-transfected HEK293T cells
Assay type: cell-based
Settings: 4-hour treatment, class symbols
ENDPOINT_LABEL: Efficacy (%)

Solved entries:
- MOLECULE: "COc1cccc(N2CCC(c3oc4cc([C@@H](CC(=O)O)C5CC5)ccc4c3C(C)OCC[C@@H](C)CCC=C(C)C)CC2)c1 (some centres unmarked)"
  Efficacy (%): "††† (Efficacy (%) > 150)"
- MOLECULE: "COc1cccc(N2CCC(c3oc4cc([C@@H](CC(=O)O)C5CC5)ccc4c3C(=O)Nc3cc(OC(F)(F)F)ccc3Cl)CC2)c1"
  Efficacy (%): "††††"
- MOLECULE: "COc1ccc(F)c(N2CCC(c3oc4cc([C@H](C5CC5)C(C)C(=O)O)ccc4c3-c3ccc(C(C)(C)C)cc3)CC2)c1 (some centres unmarked)"
  Efficacy (%): "††† (Efficacy (%) > 150)"
- MOLECULE: "COc1cccc(N2CCC(c3oc4cc([C@@H](CC(=O)O)C5CC5)ccc4c3C(OCC(C)C)c3ccc(C)cc3)CC2)c1 (some centres unmarked)"
  Efficacy (%): "††† (Efficacy (%) > 150)"
- MOLECULE: "COc1ccc(F)c(N2CCC(c3oc4cc(C(CC(=O)O)C5CC5)ccc4c3CC3=CCCC3)CC2)c1 (centres unmarked)"
  Efficacy (%): "††† (Efficacy (%) > 150)"

For each of the molecules below, note its Efficacy (%).
1. COc1ccc(C(=O)N(C)c2ccccc2)c(N2CCC(c3oc4cc([C@@H](CC(=O)O)C5CC5)ccc4c3-c3cnn(C(C)(C)C)c3)CC2)c1
2. COc1cccc(N2CCC(c3oc4cc([C@@H](CC(=O)O)C5CC5)ccc4c3C(C)OCC3CCC3)CC2)c1 (some centres unmarked)
3. CCc1ccc(Cl)c(NC(=O)c2c(C3CCN(c4cccc(OC)c4)CC3)oc3cc([C@@H](CC(=O)O)C4CC4)ccc23)c1
4. CC(C)(C)c1ccc(-c2c(C3CCN(c4ccc5c(c4)OCC5)CC3)oc3cc(C(CC(=O)O)C4CC4)ccc23)cc1 (centres unmarked)

["††† (Efficacy (%) > 150)", "††† (Efficacy (%) > 150)", "††††", "††† (Efficacy (%) > 150)"]

* * *

Molecular target: human FFAR1 (GPR40) (Homo sapiens)
Construct: Flag; expressed in transfected cells; host or cells: HEK293T
Experiment: NFAT-RE-based reporter gene activity assay (Dual-Glo luciferase) for GPR40 agonistic activity in co-transfected HEK293T cells
Assay type: cell-based
Conditions: 4-hour treatment, class symbols

- MOLECULE: "COc1cccc(N2CCC(c3oc4cc([C@@H](CC(=O)O)C5CC5)ccc4c3C(=O)Nc3cc(F)ccc3F)CC2)c1"
  Efficacy (%): "††† (Efficacy (%) > 150)"
- MOLECULE: "COc1cccc(N2CCC(c3oc4cc([C@@H](CC(=O)O)C5CC5)ccc4c3C(C)OCc3cccs3)CC2)c1 (stereo partly shown)"
  Efficacy (%): "††† (Efficacy (%) > 150)"

* * *

Target: human FFAR1 (GPR40) (Homo sapiens, UniProt O14842)
Construct: Flag; expressed in transfected cells; host or cells: HEK293T
Sequence (O14842 whole entry): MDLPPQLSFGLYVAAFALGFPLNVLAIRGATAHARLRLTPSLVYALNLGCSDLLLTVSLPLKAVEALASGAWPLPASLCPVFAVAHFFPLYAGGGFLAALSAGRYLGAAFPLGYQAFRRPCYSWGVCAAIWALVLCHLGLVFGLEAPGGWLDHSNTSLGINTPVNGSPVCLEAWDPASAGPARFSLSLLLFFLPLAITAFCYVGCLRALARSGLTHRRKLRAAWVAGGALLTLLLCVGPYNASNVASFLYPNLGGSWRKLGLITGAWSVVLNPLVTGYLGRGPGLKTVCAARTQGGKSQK
Test: NFAT-RE-based reporter gene activity assay (Dual-Glo luciferase) for GPR40 agonistic activity in co-transfected HEK293T cells
Type: cell-based
Conditions: 4-hour treatment, class symbols

- MOLECULE: "COc1cccc(N2CCC(c3oc4cc(C(CC(=O)O)C5CC5)ccc4c3C(=O)Nc3nccn3C)CC2)c1 (centres unmarked)"
  Efficacy (%): "††† (Efficacy (%) > 150)"
- MOLECULE: "CCCOC(C)c1c(C2CCN(c3cccc(OC)c3)CC2)oc2cc([C@@H](CC(=O)O)C3CC3)ccc12 (some centres unmarked)"
  Efficacy (%): "††† (Efficacy (%) > 150)"

* * *

Target: human FFAR1 (GPR40) (Homo sapiens, UniProt O14842)
Construct: Flag; expressed in transfected cells; host or cells: HEK293T
Experiment: NFAT-RE-based reporter gene activity assay (Dual-Glo luciferase) for GPR40 agonistic activity in co-transfected HEK293T cells
Type: cell-based
Settings: 4-hour treatment, class symbols

- MOLECULE: "COc1cccc(N2CCC(c3oc4cc(C(CC(=O)O)C5CC5)ccc4c3C(=O)Nc3c(F)cccc3F)CC2)c1 (centres unmarked)"
  Efficacy (%): "††† (Efficacy (%) > 150)"
- MOLECULE: "COC(=O)C(C)(C)n1cc(-c2c(C3CCN(c4cccc(OC)c4)CC3)oc3cc(C(CC(=O)O)C4CC4)ccc23)cn1 (centres unmarked)"
  Efficacy (%): "††† (Efficacy (%) > 150)"
- MOLECULE: "CCc1ccc(-c2c(C3CCN(c4cc(OC)ccc4F)CC3)oc3cc(C(CC(=O)O)C4CC4)ccc23)cc1 (centres unmarked)"
  Efficacy (%): "††† (Efficacy (%) > 150)"

* * *

Record form. Attribute: pEC50. Fill in for each entry.
Molecular target: human FFAR1 (GPR40) (Homo sapiens, UniProt O14842)
Construct: Flag
Assay: NFAT-RE-based reporter gene activity assay (Dual-Glo luciferase) for GPR40 agonistic activity in co-transfected HEK293T cells
Settings: 4-hour treatment
pEC50: −log10 of the molar value.

Hello, I would appreciate it if you could give pEC50 for each entry below.
1. COc1cccc(N2CCC(c3oc4cc([C@@H](CC(=O)O)C5CC5)ccc4c3C(=O)Nc3cc(Cl)ccc3Cl)CC2)c1
2. CC(C)(C)c1cccc(-c2c(C3CCN(c4cccc(C(F)(F)F)c4)CC3)oc3cc(C(CC(=O)O)C4CC4)ccc23)c1 (centres unmarked)
3. COc1ccc(F)c(N2CCC(c3oc4cc(C(CC(=O)O)C5CC5)ccc4c3C(=O)Nc3ccc(C(C)(C)C)cc3)CC2)c1 (centres unmarked)
4. COc1cccc(N2CCC(c3oc4cc(C(CC(=O)O)C5CC5)ccc4c3-c3nnc(C(C)(C)CC4CCCCC4)o3)CC2)c1 (centres unmarked)
5. COc1ccc(F)c(N2CCC(c3oc4cc(C(CC(=O)O)C5CC5)ccc4c3C(=O)NCC3CC3)CC2)c1 (centres unmarked)
6. COc1ccc(F)c(N2CCC(c3oc4cc(C(CC(=O)O)C5CC5)ccc4c3-c3ccccc3)CC2)c1 (centres unmarked)
7. COc1ccc(F)c(N2CCC(c3oc4cc(C(CC(=O)O)C5CC5)ccc4c3-c3cnn(-c4ccccc4)c3)CC2)c1 (centres unmarked)

≥ 8.00
6.30 to 7.00
6.30 to 7.00
7.00 to 8.00
6.30 to 7.00
6.30 to 7.00
6.30 to 7.00

Return reported pEC50 values for all items listed beneath this line.
1. COc1ccc(F)c(N2CCC(c3oc4cc(C(CC(=O)O)C5CC5)ccc4c3C=C(C)C)CC2)c1 (centres unmarked)
2. COc1cccc(N2CCC(c3oc4cc([C@@H](CC(=O)O)C5CC5)ccc4c3C(O)c3ccccc3)CC2)c1 (some centres unmarked)
3. COc1cccc(N2CCC(c3oc4cc([C@H](C5CC5)C(C)C(=O)O)ccc4c3-c3cnn(C(C)(C)C)c3)CC2)c1 (some centres unmarked)
4. CC(C)(C)c1cccc(-c2c(C3CCN(c4ccc(F)cc4)CC3)oc3cc(C(CC(=O)O)C4CC4)ccc23)c1 (centres unmarked)
5. COc1ccc(F)c(N2CCC(c3oc4cc(C(CC(=O)O)C5CC5)ccc4c3-c3ccc(N(C)C(C)C)cc3)CC2)c1 (centres unmarked)
6. COc1cccc(N2CCC(c3oc4cc(C(CC(=O)O)C5CC5)ccc4c3C3O[C@@H](C)[C@H](C)O3)CC2)c1 (some centres unmarked)

1. 6.30 to 7.00
2. < 6.30
3. ≥ 8.00
4. 6.30 to 7.00
5. 6.30 to 7.00
6. 6.30 to 7.00

Noted pEC50 for COc1cccc(N2CCC(c3oc4cc(C(CCO)C5CC5)ccc4c3-c3cnn(C(C)(C)C)c3)CC2)c1 (centres unmarked) , tested on human FFAR1 (GPR40) (Homo sapiens, UniProt O14842): 6.30 to 7.00

* * *

Would you mind telling me the reported AUC(0-t) at 7 h of each entry?
Assay: Pharmacokinetic evaluation in ICR mice (intravenous and gavage)
Assay type: in vivo
Settings: mouse, plasma, po, Gavage Administration (10 mg/kg), read-out: AUC0-7 h
Numbers only, in ng·h/mL.

- COMPOUND: "COc1ccc(F)c(N2CCC(c3oc4cc([C@@H](CC(=O)O)C5CC5)ccc4c3-c3cccc(C(C)(C)C)c3)CC2)c1"
  UNIT_TEXT: "ng·h/mL"
  AUC(0-t) at 7 h: 48100

Give me AUC(0-t) at 7 h for each of these compounds, listed below.
1. COc1ccc(F)c(N2CCC(c3oc4cc(C(CC(=O)O)C5CC5)ccc4c3-c3ccc(C(C)(C)C)cc3)CC2)c1 (stereo not shown)
2. COc1cccc(N2CCC(c3oc4cc([C@@H](CC(=O)O)C5CC5)ccc4c3-c3cnn(C(C)(C)C)c3)CC2)c1
3. COc1cccc(N2CCC(c3oc4cc([C@@H](CC(=O)O)C5CC5)ccc4c3-c3cccc(C(C)(C)C)c3)CC2)c1

[15400, 55400, 38000]
